Entries annotated with measured IC50
System: COLO320DM cells
Assay: COLO320DM proliferation assay
Assay type: cell-based, human
Conditions: read-out: COLO320DM Proliferation Abs IC50

Value (IC50, COLO320DM cells) for record CCCC[C@@H]1NC(=O)[C@H](Cc2cccc(C(=O)O)c2)NC(=O)[C@H](CC(=O)O)NC(=O)C2(CCCC=CCCCOC(=O)N3CC[C@@]4(C3)NC(=O)[C@H](CCCCNC(=O)CC[C@@H](C(=O)N[C@@H](C)C(N)=O)NC(=O)[C@H](Cc3csc5ccccc35)NC(=O)[C@H](Cc3ccsc3)NC4=O)NC(=O)[C@H](Cc3ccccc3)NC(=O)[C@H](C)NC1=O)CCCC=CC[C@]1(CCCN1C(C)=O)C(=O)N[C@@H](CC(=O)O)C(=O)N[C@@H](CC(C)(C)C)C(=O)N2 (relative stereo) = ≤ 10 µM

Now consider the entry below.
Value (IC50, COLO320DM cells) for record CC(=O)N1CCC[C@]12CC=CCCCC1(CCCC=CCCCOC(=O)N3CC[C@@]4(C3)NC(=O)[C@H](CCCCNC(=O)CC[C@@H](C(=O)N[C@@H](CC(C)C)C(=O)N[C@@H](CO)C(N)=O)NC(=O)[C@H](Cc3csc5ccccc35)NC(=O)[C@H](Cc3ccccc3C(F)(F)F)NC4=O)NC(=O)[C@H](Cc3ccccc3)NC(=O)[C@H](C)NC(=O)C(C)(C)NC(=O)[C@H](Cc3cccc(C(=O)O)c3)NC(=O)[C@H](CC(=O)O)NC1=O)NC(=O)[C@H](CC(C)(C)C)NC(=O)[C@H](CC(=O)O)NC2=O (relative stereo) = ≤ 10 µM

FYI, the data here is from patent US20260207704A1.
